molecular target: Bcl-2 protein (histag-Bcl-2, UniProtKB P10415) (Homo sapiens (Human), UniProt P10415); test: Inhibition of Bcl-2 by the fluorescence polarisation technique; format: binding; conditions: fluorescence polarisation test; incubation for 2 hours; read-out: IC50 (nM) Bcl-2 FP
Sequence (P10415 whole entry): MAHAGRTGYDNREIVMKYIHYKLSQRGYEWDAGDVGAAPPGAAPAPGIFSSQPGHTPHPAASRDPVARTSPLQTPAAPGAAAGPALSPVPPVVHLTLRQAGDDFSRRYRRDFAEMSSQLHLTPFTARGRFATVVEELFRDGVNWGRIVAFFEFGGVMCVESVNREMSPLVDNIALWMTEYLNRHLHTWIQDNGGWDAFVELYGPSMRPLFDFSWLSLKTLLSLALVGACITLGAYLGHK
quantityName: IC50 (nM)

> print(dat)
                                   molecule  quantitativereadout
1  Cc1c(C(=O)N(C)c2ccccc2)cc(-c2cc3c(cc2C(=O)N2Cc4ccccc4C[C@H]2CN2CCOCC2)CN(C(=O)Oc2ccc4[nH]ccc4c2)CC3)n1C [Example 631]                  5.2
2  Cc1c(C(=O)N(C)c2ccccc2)cc(-c2cc3c(cc2C(=O)N2Cc4ccccc4C[C@H]2CN2CCOCC2)CN(C(=O)Oc2ccccc2)CC3)n1C [Example 115]                  3.4
3  C[C@@H]1Cc2ccccc2CN1C(=O)c1cc2c(cc1-c1cc(C(=O)N(C)c3ccc(O)cc3)c3n1CCCC3)CN(C(=O)Oc1ccccc1)C2 [Example 45]                   15
